Reported activity coefficient by item:
experiment: activity coefficient (dimensionless); of the first substance listed, at infinite dilution; xn = mol fraction of the nth substance listed; details: 323 K; 101.33 kPa; Liquid; Chromatography; x1 = 0

Molecule	activity coefficient
CCOC(C)=O [ethyl acetate] + O=S(=O)([N-]S(=O)(=O)C(F)(F)F)C(F)(F)F.O=S(=O)([N-]S(=O)(=O)C(F)(F)F)C(F)(F)F.O=S(=O)([N-]S(=O)(=O)C(F)(F)F)C(F)(F)F.c1ccc2cc(-n3cc[n+](Cc4cc(C[n+]5ccn(-c6ccc7ccccc7c6)c5)cc(C[n+]5ccn(-c6ccc7ccccc7c6)c5)c4)c3)ccc2c1	0.776
Cc1ccccc1C [1,2-dimethylbenzene] + O=S(=O)([N-]S(=O)(=O)C(F)(F)F)C(F)(F)F.O=S(=O)([N-]S(=O)(=O)C(F)(F)F)C(F)(F)F.O=S(=O)([N-]S(=O)(=O)C(F)(F)F)C(F)(F)F.c1ccc2cc(-n3cc[n+](Cc4cc(C[n+]5ccn(-c6ccc7ccccc7c6)c5)cc(C[n+]5ccn(-c6ccc7ccccc7c6)c5)c4)c3)ccc2c1	2.25
Cc1cccc(C)c1 [1,3-dimethylbenzene] + O=S(=O)([N-]S(=O)(=O)C(F)(F)F)C(F)(F)F.O=S(=O)([N-]S(=O)(=O)C(F)(F)F)C(F)(F)F.O=S(=O)([N-]S(=O)(=O)C(F)(F)F)C(F)(F)F.c1ccc2cc(-n3cc[n+](Cc4cc(C[n+]5ccn(-c6ccc7ccccc7c6)c5)cc(C[n+]5ccn(-c6ccc7ccccc7c6)c5)c4)c3)ccc2c1	2.31
